Assay: Antiinflammatory activity in C57BL6/J mouse BV2 cells assessed as inhibition of LPS-induced nitric oxide production after 24 hrs by Griess assay
Assay type: functional, cell-based
Details: BV-2, 24 h
pIC50: −log10 of the molar value.
Measure Name: pIC50

Molecule	pIC50
C[C@@H]1C[C@H]2[C@@H]3CCC4=CC(=O)C=C[C@]4(C)[C@@]3(F)[C@@H](O)C[C@]2(C)[C@@]1(O)C(=O)CO [DEXAMETHASONE]	7.60

For every item below, please supply its pIC50.
1. COc1cc([C@H]2Oc3c(OC)cc(C(=O)[C@@H](O)CO)cc3[C@@H]2CO)ccc1O
2. C=C1[C@@H]2C[C@@H]2[C@@]2(C)C=C3OC(=O)C(C)=C3[C@@H](O)[C@H]12
3. CC(=O)/C=C/C1=CC[C@H]2[C@H](C[C@@H]1C)OC(=O)[C@H]2C
4. C=C1C(=O)O[C@H]2C[C@H](C)C(C=O)=CC[C@H]12

*A*
1: < 5.00; 2: < 5.00; 3: < 5.00; 4: 5.52

For every item below, please supply its pIC50.
1. CC(O)CCC1=CC[C@H]2[C@@H](C[C@@H]1C)OC(=O)[C@@H]2C (some centres undefined)
2. COc1cc([C@@H]2Oc3c(OC)cc(C(=O)[C@H](O)CO)cc3[C@H]2CO)ccc1O
3. CC(=O)CCC1=CC[C@H]2[C@H](C[C@@H]1C)OC(=O)[C@@H]2C
4. CCOC(=O)c1ccc(O)c(O)c1

*A*
5.24
< 5.00
< 5.00
< 5.00

Sourced from ChEMBL document CHEMBL3593156
